Target: Aβ42 oligomers (Homo sapiens, UniProt P05067)
Construct: The monomers, oligomers and fibrils of Aβ42 were prepared according to established protocols and confirmed by TEM
Sequence (P05067 672-713 limits assumed): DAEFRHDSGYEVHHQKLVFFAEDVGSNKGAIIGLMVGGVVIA
Experiment: Fluorescence polarization binding to Aβ42 oligomers
Settings: compound 1 μM, 3 hrs, read-out: apparent binding constant (Kd) for Aβ42 oligomers
Metric: Kd (nM)
Numbers only here, please. The scale is nM.

Kd lookup needed for COc1cc(C=CC(=O)C(Cc2cn(CCCCCCNC(=O)CCNC(=O)CCNC(=O)COC3CCC4(C)C(=CCC5C4CCC4(C)C(C(C)CCCC(C)C)CCC54)C3)nn2)C(=O)C=Cc2ccc(O)c(OC)c2)ccc1O (stereo not shown) , thanks.
2170

Every entry's value here was drawn from patent US9260473B2.
